Taken from patent US20120114652A1.

Property: IC50 chromogenic; scope: individual binders
MEASUREMENT_TARGET: cynomolgus PAI-1 (cynomolgus, UniProt P05121 24-402 (human entry), limits assumed)
EXPERIMENT: cell-based or functional assay
Write the number in nM without appending the unit.

Recorded IC50 chromogenic, per entry:
Inquiry: GET /values?readout=IC50 chromogenic&item= Antibody 08, scFv (scFv, V domains shown) VH: QVQLVQSGAEVKKPGSSVKVSCKASGGTFSSYAISWVRQAPGQGLEWMGGIIPTFGTANYAQKFQGRVTITADESTSTAYMELSSLRSEDTAVYYCARERRQWLEGHFDYWGRGTLVTVSS VL: DIQMTQSPSTLSASVGDRVTITCRASEGIYHNLAWYQQKPGKAPKLLIYKASSLASGVPSRFSGSRSGTEFTLTISSLQPDDFATYYCQQYSNYPLTFGGGTKVEIK
Reply text: 1

Inquiry: Look up IC50 chromogenic for this binder: Antibody 27, scFv (scFv, V domains shown) VH: QVQLQQSGAEVKKPGSSVKVSCKASGGAFSSYAISWVRQAPGQGLEWMGGIIPTFGTANYAQKFQGRVTITADESTSTAYMELSGLRSEDTAVYYCAREKRQWLEGHFDYWGRGTPVTVSS VL: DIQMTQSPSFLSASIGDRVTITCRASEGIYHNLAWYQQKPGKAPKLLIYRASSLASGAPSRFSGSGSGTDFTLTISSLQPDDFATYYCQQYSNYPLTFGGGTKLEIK
Reply text: 2.2

Continuing:
Inquiry: Consider the binder Antibody 15, scFv (scFv, V domains shown) VH: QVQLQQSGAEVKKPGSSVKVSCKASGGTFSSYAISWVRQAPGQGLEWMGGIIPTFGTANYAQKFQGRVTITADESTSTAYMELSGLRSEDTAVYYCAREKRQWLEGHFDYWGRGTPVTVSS VL: DIQMAQSPSFLSASIGDRVTITCRASEGIYHNLAWYQQKPGKAPKLLIYRASSLASGAPSRFSGSGSGTDFTLTISSLQPDDFATYYCQQYSNYPLTFGGGTKLEIR and give its measured IC50 chromogenic.
Reply text: 2.2
